System: RPMI-8226 leukemia
experimentNotes: NCI-60 one-dose screen, 48 h (100 = growth as untreated, 0 = no growth, -100 = all killed)
experimentalContext: 10 µM unless noted
Compounds without any hit were thinned out: in the full panel of roughly 83,000, 20% have a hit.
Labels assigned by growth range: A = under 40%, B = from 40% up to 90%, C = 90% and over

Look over these answered cases.
| molecule | label |
| --- | --- |
| S=C(Cc1ccccc1)N1CCN(c2ccccc2Cl)CC1 | C |
| COc1ccc2c(c1)C1=NN(C(=O)CO)[C@H](c3ccc(OC(F)(F)F)cc3)[C@@H]1CC2 | B |
| C=C1C(=O)O[C@H]2[C@H]1CC/C(COC(=O)NCc1[nH]nc3ccccc13)=C\CC[C@@]1(C)O[C@@H]21 | A |
| O=C(NO)c1ccc(CNc2cccc3nc(C4CC4)n(-c4ccccc4)c(=O)c23)cc1 | A |
| COC(=O)OC1C(O[C@H]2C[C@H]3[C@@H]4CC=C5C[C@@H](O)CC[C@]5(C)[C@H]4CC[C@]3(C)[C@H]2[C@H](C)C(=O)CCC(C)C)OCC(O)C1OC1OCC(O)C(O)C1OC(=O)c1ccc(OC)cc1 (some centres not stated) | A |
| Oc1ccc(-c2nnc3c4[nH]ccc4ncn23)cc1 | C |
| Nc1c(Br)cc2c(c1Br)Cc1cc(Cl)ccc1-2 | C |
| Cc1csc(N/N=C/c2ccncc2)n1 | C |

Task: Each molecule maps to one class by growth. Which class for O=C(O)c1cc2cc(OCc3ccccc3)ccc2[nH]1 ?
Result: C
